Would you mind telling me the reported interaction score of each entry?
- test_target: T1, O14-bA
- T1 chain: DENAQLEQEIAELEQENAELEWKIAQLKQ
- experiment_summary: two-hybrid library CCNG1;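 also: natural log of median RNA to DNA barcode read ratio; higher means stronger binding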

Reference set, count: 7
binder: DENAQLKQENAELEQKIAELKWKIAQLKQ [4H1710-bA]
metric: interaction score
assay_result: -1.06
--
binder: DEIAQLKQKIAELKQKNAELEWENAQLEQ [4H883-bA]
metric: interaction score
assay_result: 0.814
--
binder: DEIAQLEQKIAELKQKNAELKWKNAQLKQ [O12-bA]
metric: interaction score
assay_result: -0.435
--
binder: DEIQQLKQKNQELEQENQELEWKIQELKQ [4H918-bN]
metric: interaction score
assay_result: -0.665
--
binder: DKIAQLKQEIAELEQENAELEWENAQLEQ [O11-bA]
metric: interaction score
assay_result: -0.951
--
binder: DKNAQLKQENAELEQEIAELEWEIAQLEQ [O1-bA]
metric: interaction score
assay_result: -1.02
--
binder: DKNAQLKQENAELEQKIAELKWKIAQLKQ [O10-bA]
metric: interaction score
assay_result: -1.3

Consider the additional binder presented here.
Please give measured interaction score of the following entry: DEIAQLEQKNAELKQEIAELKWEIAQLEQ [4H457-bA]
-0.0398
